Just for reference, paper PMC6588464 is where these values come from.

target: CDK7/Mat1/CycH (Homo sapiens, UniProt P50613); assay: Adapta Eu fixed time point in vitro kinase assay, Km ATP; conditions: read-out: IC50 CDK7/Mat1/CycH; fixed time point, Km ATP
Sequence (P50613 whole entry): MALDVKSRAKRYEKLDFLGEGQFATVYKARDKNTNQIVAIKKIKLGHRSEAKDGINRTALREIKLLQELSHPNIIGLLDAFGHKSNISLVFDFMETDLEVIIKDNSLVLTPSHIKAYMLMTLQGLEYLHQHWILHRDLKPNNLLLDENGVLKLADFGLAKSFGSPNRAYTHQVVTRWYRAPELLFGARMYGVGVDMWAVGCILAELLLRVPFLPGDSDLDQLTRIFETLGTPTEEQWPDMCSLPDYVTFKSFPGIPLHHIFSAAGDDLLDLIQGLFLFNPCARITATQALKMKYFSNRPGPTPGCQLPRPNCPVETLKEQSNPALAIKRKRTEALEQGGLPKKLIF
Sequence (P51946 whole entry partner): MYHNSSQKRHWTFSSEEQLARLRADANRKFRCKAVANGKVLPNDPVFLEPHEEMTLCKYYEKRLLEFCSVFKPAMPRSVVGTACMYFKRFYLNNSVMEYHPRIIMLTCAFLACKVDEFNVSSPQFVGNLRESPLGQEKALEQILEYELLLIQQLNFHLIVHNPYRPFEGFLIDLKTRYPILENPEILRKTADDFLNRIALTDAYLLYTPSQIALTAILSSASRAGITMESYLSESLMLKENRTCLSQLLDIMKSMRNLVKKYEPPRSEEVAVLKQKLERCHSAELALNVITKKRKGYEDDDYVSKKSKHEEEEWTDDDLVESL
Sequence (P51948 whole entry partner): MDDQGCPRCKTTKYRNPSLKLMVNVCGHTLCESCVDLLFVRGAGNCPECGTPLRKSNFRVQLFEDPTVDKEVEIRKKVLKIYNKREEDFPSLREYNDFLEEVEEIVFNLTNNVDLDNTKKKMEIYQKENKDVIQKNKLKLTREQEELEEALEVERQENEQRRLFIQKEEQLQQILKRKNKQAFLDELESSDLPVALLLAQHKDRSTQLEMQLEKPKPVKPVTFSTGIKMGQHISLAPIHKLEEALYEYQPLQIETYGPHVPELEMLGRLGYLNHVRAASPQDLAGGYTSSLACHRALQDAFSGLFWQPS
pIC50: −log10 of the molar value.
Measured Endpoint: pIC50

1. C=CC(=O)Nc1ccc(C(=O)Nc2n[nH]c3c2CN(C(=O)N[C@H](CN(C)C)c2ccccc2)C3(C)C)cc1
8.01
